Each item that follows carries a reported inhibition at 1 µM.
target-under-test: human SSTR5 (Homo sapiens, UniProt P35346)
Construct: expressed in transfected cells
Sequence (P35346 whole entry): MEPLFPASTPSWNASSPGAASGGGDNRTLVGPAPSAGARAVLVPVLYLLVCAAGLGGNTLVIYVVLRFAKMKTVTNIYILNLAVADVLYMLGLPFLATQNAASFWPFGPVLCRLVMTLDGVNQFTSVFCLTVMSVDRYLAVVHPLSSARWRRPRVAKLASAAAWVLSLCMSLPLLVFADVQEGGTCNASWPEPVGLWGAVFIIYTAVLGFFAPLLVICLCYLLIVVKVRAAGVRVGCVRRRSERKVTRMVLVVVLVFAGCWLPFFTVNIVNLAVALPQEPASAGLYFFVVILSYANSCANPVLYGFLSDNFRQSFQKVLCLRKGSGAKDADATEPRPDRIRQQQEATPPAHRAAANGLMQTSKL
assay-info: Evaluation of human SSTR5 antagonist activity using intracellular cAMP concentration as index
Format: cell-based
condition-info: 1 μM test compound; CHO (dhfr-) cells stably expressing human SSTR5; 0.1 nM somatostatin 28, 0.3 μM forskolin; cAMP HTRF; read-out: Inhibition rate against SSTR5 at 1 μM
Procedure: Evaluation of Human SSTR5 Antagonist Activity Using Intracellular cAMP Concentration as Index The intracellular cAMP concentration was measured using HTRF cAMP dynamic 2 kit (Cisbio Bioassays). […] Then, the fluorescence resonance energy transfer (FRET) intensity was measured using Multi-label reader Envision (PerkinElmer). […]
property-name: inhibition at 1 µM (%)

| smiles-notation | endpoint-value |
| --- | --- |
| CCCc1nc2c(cc1C(=O)O)C(=O)N(C1CCN(Cc3cc(C4CC4)c(-c4ccc(F)cc4F)cc3OC(C)C)CC1)CC2 | 148 |
| CCCc1nc2c(cc1C(=O)O)C(=O)N(C1CCN(Cc3cc(C4CC4)c(-c4ccc(F)cc4F)c(F)c3OC)CC1)CC2 | 86 |
| CCOc1cc(CN2CCC(N3CCc4nc(C)c(C(=O)O)cc4C3=O)CC2)cc(C2CC2)c1-c1ccc(F)c(F)c1 | 97 |
| CCCc1nc2c(cc1C(=O)O)C(=O)N(C1CCN(Cc3cc(C4CC4)c(-c4ccc(F)cc4)cc3OC)CC1)CC2 | 136 |
| CC(C)Oc1cc(-c2ccc(F)cc2)c(C2CC2)cc1CN1CCC(N2CCc3nc(C(C)C)c(C(=O)O)cc3C2=O)CC1 | 99 |
| CCOc1cc(-c2ccc(F)cc2)c(C2CC2)cc1CN1CCC(N2CCc3nc(C(C)C)c(C(=O)O)cc3C2=O)CC1 | 91 |
| CCOc1cc(CN2CCC(N3CCc4nc(C(=O)O)ccc4C3=O)CC2)cc(OCC)c1-c1ccc(F)cc1 | 108 |

###

target-under-test: human SSTR5 (Homo sapiens, UniProt P35346)
Construct: expressed in transfected cells
assay-info: Evaluation of human SSTR5 antagonist activity using intracellular cAMP concentration as index
Type: cell-based
condition-info: 1 μM test compound; CHO (dhfr-) cells stably expressing human SSTR5; 0.1 nM somatostatin 28, 0.3 μM forskolin; cAMP HTRF; read-out: Inhibition rate against SSTR5 at 1 μM
Reported inhibition at 1 µM is given for each of the following compounds.
property-name: inhibition at 1 µM (%)

| compound | property-name | endpoint-value |
| --- | --- | --- |
| Cc1nc2c(cc1C(=O)O)C(=O)N(C1CCN(Cc3cc(C4CC4)c(-c4ccc(F)cc4)nc3OC(C)C)CC1)CC2 | inhibition at 1 µM | 88 |
| CCOc1cc(CN2CCC(N3CCc4nc(C)c(C(=O)O)cc4C3=O)CC2)cc(C2CC2)c1-c1ccc(F)cc1 | inhibition at 1 µM | 91 |
| CCOc1cc(CN2CCC(N3CCc4ncc(C(=O)O)cc4C3=O)C2)cc(OCC)c1-c1ccc(F)cc1 (centres unmarked) | inhibition at 1 µM | 102 |
| CCCc1nc2c(cc1C(=O)O)C(=O)N(C1CCN(Cc3cc(C4CC4)c(C4CC4)cc3OCC)CC1)CC2 | inhibition at 1 µM | 103 |
| CCCOc1cc(CN2CCC(N3CCc4nc(CCC)c(C(=O)O)cc4C3=O)CC2)cc(C2CC2)c1-c1ccc(F)cc1 | inhibition at 1 µM | 96 |
| CCCc1nc2c(cc1C(=O)O)C(=O)N(C1CCN(Cc3cc(OC(C)C)c(-c4ccc(F)cc4)c(C4CC4)c3)CC1)CC2 | inhibition at 1 µM | 97 |
| CCOc1cc(C2CCC2)c(C2CC2)cc1CN1CCC(N2CCc3ncc(C(=O)O)cc3C2=O)CC1 | inhibition at 1 µM | 110 |
| CCCc1nc2c(cc1C(=O)O)C(=O)N(C1CCN(Cc3cc(C4CC4)c(C4CCC4)cc3OC(C)C)CC1)CC2 | inhibition at 1 µM | 99 |
| CCOc1nc(-c2ccc(F)cc2)c(C2CC2)cc1CN1CCC(N2CCc3nc(CC)c(C(=O)O)cc3C2=O)CC1 | inhibition at 1 µM | 123 |
| CCCc1nc2c(cc1C(=O)O)C(=O)N(C1CCN(Cc3cc(C4CC4)c(-c4ccc(F)cc4)c(F)c3OC)CC1)CC2 | inhibition at 1 µM | 82 |
| CCc1nc2c(cc1C(=O)O)C(=O)N(C1CCN(Cc3cc(C4CC4)c(-c4ccc(F)cc4)c(F)c3OC(C)C)CC1)CC2 | inhibition at 1 µM | 97 |
| CCOc1cc(-c2ccc(F)cc2)c(C2CC2)cc1CN1CCC(N2CCc3nc(CC)c(C(=O)O)cc3C2=O)CC1 | inhibition at 1 µM | 86 |
| CCCc1nc2c(cc1C(=O)O)C(=O)N(C1CCN(Cc3cc(C4CC4)c(-c4ccc(F)c(F)c4)cc3OCC)CC1)CC2 | inhibition at 1 µM | 95 |
| CCOc1cc(-c2ccc(F)cc2F)c(C2CC2)cc1CN1CCC(N2CCc3nc(COC)c(C(=O)O)cc3C2=O)CC1 | inhibition at 1 µM | 99 |

###

Known inhibition at 1 µM of a selection of compounds
target-under-test: human SSTR5 (Homo sapiens, UniProt P35346)
Construct: expressed in transfected cells
assay-info: Evaluation of human SSTR5 antagonist activity using intracellular cAMP concentration as index
Assay type: cell-based
condition-info: 1 μM test compound; CHO (dhfr-) cells stably expressing human SSTR5; 0.1 nM somatostatin 28, 0.3 μM forskolin; cAMP HTRF; read-out: Inhibition rate against SSTR5 at 1 μM
property-name: inhibition at 1 µM (%)

| compound | target-under-test | property-name | u | endpoint-value |
| --- | --- | --- | --- | --- |
| CCOc1cc(-c2ccc(F)cc2)c(C2CC2)cc1CN1CCC(N2CCc3ccc(C(=O)O)nc3C2=O)CC1 [Example 31] | human SSTR5 (Homo sapiens, UniProt P35346) | inhibition at 1 µM | % | 118 |
| CCOc1cc(-c2ccc(F)cc2)c(C2CC2)cc1CN1CCC(N2CCc3nc(C(=O)O)ccc3C2=O)CC1 [Example 54] | human SSTR5 (Homo sapiens, UniProt P35346) | inhibition at 1 µM | % | 123 |
| CCOc1cc(-c2ccc(F)cc2)c(C2CC2)cc1CN1CCC(N2CCc3nc(C)c(C(=O)O)cc3C2=O)CC1 [Example 5] | human SSTR5 (Homo sapiens, UniProt P35346) | inhibition at 1 µM | % | 132 |
| CCCc1nc2c(cc1C(=O)O)C(=O)N(C1CCN(Cc3cc(OCC)c(-c4ccc(F)cc4F)c(C4CC4)c3)CC1)CC2 [Example 64] | human SSTR5 (Homo sapiens, UniProt P35346) | inhibition at 1 µM | % | 89 |

###

Reported inhibition at 1 µM values follow for various molecules
target-under-test: human SSTR5 (Homo sapiens)
Construct: expressed in transfected cells
assay-info: Evaluation of human SSTR5 antagonist activity using intracellular cAMP concentration as index
Type: cell-based
condition-info: 1 μM test compound; CHO (dhfr-) cells stably expressing human SSTR5; 0.1 nM somatostatin 28, 0.3 μM forskolin; cAMP HTRF; read-out: Inhibition rate against SSTR5 at 1 μM

| molecule | u | inhibition at 1 µM |
| --- | --- | --- |
| CCCc1nc2c(cc1C(=O)O)C(=O)N(C1CCN(Cc3cc(C4CC4)c(-c4ccc(F)c(F)c4)cc3OC(C)C)CC1)CC2 [Example 39] | % | 112 |
| CCc1nc2c(cc1C(=O)O)C(=O)N(C1CCN(Cc3cc(C4CC4)c(-c4ccc(F)cc4F)cc3OC(C)C)CC1)CC2 [Example 46] | % | 86 |
| CCCc1nc2c(cc1C(=O)O)C(=O)N(C1CCN(Cc3cc(OCC)c(-c4ccc(F)cc4)c(OCC)c3)CC1)CC2 [Example 38] | % | 97 |
| CCc1nc2c(cc1C(=O)O)C(=O)N(C1CCN(Cc3cc(C4CC4)c(-c4ccc(F)cc4F)c(Cl)c3OC)CC1)CC2 [Example 66] | % | 64 |
| CCCc1nc2c(cc1C(=O)O)C(=O)N(C1CCN(Cc3cc(C4CC4)c(C4CCC4)cc3OCC)CC1)CC2 [Example 52] | % | 114 |
| CCc1nc2c(cc1C(=O)O)C(=O)N(C1CCN(Cc3cc(C4CC4)c(-c4ccc(F)cc4)cc3OC(C)C)CC1)CC2 [Example 44] | % | 111 |
| CCOc1cc(CN2CCC(N3CCc4nc(CC)c(C(=O)O)cc4C3=O)CC2)cc(C2CC2)c1-c1ccc(F)cc1 [Example 45] | % | 99 |
